The reported numbers originate from ChEMBL document CHEMBL1148527.

target: Apoptosis regulator Bcl-2 (Homo sapiens, UniProt P10415); test: Displacement of Flu-Bid from human recombinant Bcl2 receptor
Sequence (P10415 whole entry): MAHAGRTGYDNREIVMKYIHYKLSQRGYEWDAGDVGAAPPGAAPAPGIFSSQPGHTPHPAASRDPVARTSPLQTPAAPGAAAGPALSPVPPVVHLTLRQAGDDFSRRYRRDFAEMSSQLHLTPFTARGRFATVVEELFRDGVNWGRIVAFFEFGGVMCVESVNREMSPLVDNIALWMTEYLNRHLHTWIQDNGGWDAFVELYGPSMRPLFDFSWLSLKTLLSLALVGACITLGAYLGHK
pIC50: −log10 of the molar value.
Assay Metric: pIC50

Exercise: Entry under review: CC(C)(C)C[C@H]1N[C@@H](C(=O)NCCN2CCOCC2)[C@H](c2cccc(Cl)c2F)[C@@]12C(=O)Nc1cc(Cl)ccc12 . Reported pIC50?
Key: < 4.30

====

target: Bcl-2-like protein 1 (Homo sapiens, UniProt Q07817); assay: Displacement of Flu-Bid from human recombinant Bcl-xL receptor
Sequence (Q07817 whole entry): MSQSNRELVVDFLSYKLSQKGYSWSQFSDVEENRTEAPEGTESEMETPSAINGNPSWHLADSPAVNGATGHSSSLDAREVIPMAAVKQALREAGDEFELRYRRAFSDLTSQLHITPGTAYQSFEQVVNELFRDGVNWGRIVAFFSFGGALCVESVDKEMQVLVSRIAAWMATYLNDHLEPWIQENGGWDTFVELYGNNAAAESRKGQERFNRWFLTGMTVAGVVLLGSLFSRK
pIC50: −log10 of the molar value.
Assay Metric: pIC50

Exercise: Value lookup for pIC50; key = CC(C)(C)C[C@H]1N[C@@H](C(=O)NCCN2CCOCC2)[C@H](c2cccc(Cl)c2F)[C@@]12C(=O)Nc1cc(Cl)ccc12
Key: < 4.30
